molecular target: FPR1 (Homo sapiens); construct: purchased Promega (in-house HiBiT-GPCR construct library, NanoBRET); assay: NanoBRET screen HiBiT-FPR1 in HEK293; assay type: binding; settings: FPR1; tracer 1μM
Sequence (P21462 whole entry): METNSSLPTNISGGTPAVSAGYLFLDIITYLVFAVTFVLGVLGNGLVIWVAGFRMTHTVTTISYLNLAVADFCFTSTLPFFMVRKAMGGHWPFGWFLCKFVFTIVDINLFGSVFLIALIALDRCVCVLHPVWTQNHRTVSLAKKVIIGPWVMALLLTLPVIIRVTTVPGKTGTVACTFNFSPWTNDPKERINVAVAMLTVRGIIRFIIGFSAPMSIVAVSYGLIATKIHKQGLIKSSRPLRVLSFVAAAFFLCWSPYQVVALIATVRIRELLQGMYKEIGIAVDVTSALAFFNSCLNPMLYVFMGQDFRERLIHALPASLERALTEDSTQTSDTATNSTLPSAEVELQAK
NanoBRET Fold Response: recorded values

COMPOUND	NanoBRET Fold Response
Cc1nc2n(c(=O)c1CCN1CCC(c3noc4cc(F)ccc34)CC1)CCCC2OC(=O)NCCOCCOCCOCCOCCNC(=O)CCc1ccc2n1[B-](F)(F)[N+]1=C(c3ccc[nH]3)C=CC1=C2 (centres unmarked) [Risperidone-2-NB590]	0.91
COc1ccccc1N1CCN(CCCCN2C(=O)c3ccc(CNC(=O)CCOCCNC(=O)c4ccc(CNC(=O)CCc5ccc6n5[B-](F)(F)[N+]5=C(c7ccc[nH]7)C=CC5=C6)cc4)cc3C2=O)CC1 [NAN-190-3-NB590]	1.09
Cc1cc2c(s1)Nc1ccccc1N=C2N1CCN(CCCNC(=O)CCOCCOCCOCCOCCNC(=O)CCc2ccc3n2[B-](F)(F)[N+]2=C(c4ccc[nH]4)C=CC2=C3)CC1 [Olanzapine-a-2-NB590]	1.01
CC(C)N(CC[C@H](c1ccccc1)c1cc(CCNC(=O)CCOCCOCCOCCOCCNC(=O)CCc2ccc3n2[B-](F)(F)[N+]2=C(c4ccc[nH]4)C=CC2=C3)ccc1O)C(C)C [Tolterodine-2-NB590]	0.85
N#CN=C(NCCCOc1cccc(CN2CCCCC2)c1)NCCNC(=O)CCOCCOCCOCCOCCNC(=O)CCc1ccc2n1[B-](F)(F)[N+]1=C(c3ccc[nH]3)C=CC1=C2 [Aminopotentidine-2-NB590]	0.97
O=C(CCc1ccc2n1[B-](F)(F)[N+]1=C(c3ccc[nH]3)C=CC1=C2)NCCOCCOCCNC(=O)OCCOCCN1CCN(C2=Nc3ccccc3Sc3ccccc32)CC1 [Quetiapine-a-2-NB590]	0.92
O=C(CCc1ccc2n1[B-](F)(F)[N+]1=C(c3ccc[nH]3)C=CC1=C2)NCc1ccc(C(=O)NCCOCCC(=O)N[C@@H]2CC[C@@]3(O)[C@H]4Cc5ccc(O)c6c5[C@@]3(CCN4CC3CC3)[C@H]2O6)cc1 [Naltrexone-3-NB590]	0.98
COc1ccccc1N1CCN(CCCCN2C(=O)c3ccc(CNC(=O)CCOCCOCCOCCOCCNC(=O)CCc4ccc5n4[B-](F)(F)[N+]4=C(c6ccc[nH]6)C=CC4=C5)cc3C2=O)CC1 [NAN-190-2-NB590]	1.04
O=C(CCOCCOCCOCCOCCNC(=O)CCc1ccc2n1[B-](F)(F)[N+]1=C(c3ccc[nH]3)C=CC1=C2)NCCCN1CCN(C2=Nc3ccccc3Oc3ccc(Cl)cc32)CC1 [Loxapine-a-2-NB590]	1.10
CCCn1c(=O)c2[nH]c(-c3ccc(OCC(=O)NCCNC(=O)CCOCCNC(=O)c4ccc(CNC(=O)CCc5ccc6n5[B-](F)(F)[N+]5=C(c7ccc[nH]7)C=CC5=C6)cc4)cc3)nc2n(CCC)c1=O [XAC-3-NB590]	1.10
CC(C)N(CC[C@H](c1ccccc1)c1cc(CCNC(=O)c2ccc(CNC(=O)CCc3ccc4n3[B-](F)(F)[N+]3=C(c5ccc[nH]5)C=CC3=C4)cc2)ccc1O)C(C)C [Tolterodine-BZ-NB590]	1.02

---

NanoBRET Fold Response: recorded values
molecular target: P2RY14 (Homo sapiens); construct: purchased Promega (in-house HiBiT-GPCR construct library, NanoBRET); test: NanoBRET screen HiBiT-P2RY14 in HEK293; assay type: binding; conditions: P2RY14; tracer 0.1μM
Sequence (Q15391 whole entry, one chain of several): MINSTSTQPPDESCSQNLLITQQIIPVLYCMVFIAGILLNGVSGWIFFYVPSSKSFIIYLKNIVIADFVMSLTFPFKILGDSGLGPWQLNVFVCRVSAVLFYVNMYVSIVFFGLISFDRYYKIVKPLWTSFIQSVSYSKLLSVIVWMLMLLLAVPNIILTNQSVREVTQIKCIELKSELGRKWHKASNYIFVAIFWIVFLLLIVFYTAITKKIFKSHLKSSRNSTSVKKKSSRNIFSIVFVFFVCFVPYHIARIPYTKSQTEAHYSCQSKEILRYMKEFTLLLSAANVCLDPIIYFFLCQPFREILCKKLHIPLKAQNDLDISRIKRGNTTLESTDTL

COMPOUND	NanoBRET Fold Response
Cc1cc2c(s1)Nc1ccccc1N=C2N1CCN(CCCNC(=O)CCOCCOCCOCCOCCNC(=O)CCc2ccc3n2[B-](F)(F)[N+]2=C(c4ccc[nH]4)C=CC2=C3)CC1 [Olanzapine-a-2-NB590]	1.05
O=C(CCc1ccc2n1[B-](F)(F)[N+]1=C(c3ccc[nH]3)C=CC1=C2)NCCOCCOCCNC(=O)OCCOCCN1CCN(C2=Nc3ccccc3Sc3ccccc32)CC1 [Quetiapine-a-2-NB590]	0.96
CC(C)N(CC[C@H](c1ccccc1)c1cc(CCNC(=O)CCOCCOCCOCCOCCNC(=O)CCc2ccc3n2[B-](F)(F)[N+]2=C(c4ccc[nH]4)C=CC2=C3)ccc1O)C(C)C [Tolterodine-2-NB590]	0.93
